# ASSAYED_TARGET: Activated human plasma kallikrein (Enzyme Research Laboratories, HPKa 1303) (human, UniProt P03952 20-638)
# Sequence (P03952 20-638 limits assumed): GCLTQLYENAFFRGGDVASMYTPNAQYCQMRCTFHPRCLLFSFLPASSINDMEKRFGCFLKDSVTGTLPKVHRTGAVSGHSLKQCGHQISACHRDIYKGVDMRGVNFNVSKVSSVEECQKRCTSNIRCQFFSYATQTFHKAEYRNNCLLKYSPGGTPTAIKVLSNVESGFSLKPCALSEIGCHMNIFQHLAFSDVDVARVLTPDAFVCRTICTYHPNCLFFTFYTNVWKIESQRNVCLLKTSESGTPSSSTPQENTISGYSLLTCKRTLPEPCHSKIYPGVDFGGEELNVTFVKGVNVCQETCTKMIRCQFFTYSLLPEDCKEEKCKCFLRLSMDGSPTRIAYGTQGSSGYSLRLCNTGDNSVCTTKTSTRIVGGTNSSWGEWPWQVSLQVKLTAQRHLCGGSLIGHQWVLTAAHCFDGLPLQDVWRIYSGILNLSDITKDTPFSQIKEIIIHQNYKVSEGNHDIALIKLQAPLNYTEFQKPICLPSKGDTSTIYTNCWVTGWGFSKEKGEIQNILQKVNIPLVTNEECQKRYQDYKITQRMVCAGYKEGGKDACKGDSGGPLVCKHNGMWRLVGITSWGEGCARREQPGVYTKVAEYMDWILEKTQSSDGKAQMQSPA
# METHOD_SUMMARY: cell-based or functional assay
Bridge positions count the residues as written; N and C are the ends. Square brackets hold non-standard residues; d marks the D form. Ends that are not written are not given here. * marks the point of attachment. mXylyl = xylyl linker from dibromoxylene joining the two cysteines; des‑NH2 = missing amino-terminal amine group; η‑ω‑MeR = eta-omega methylated arginine; Gly(cPr) = N[C@H](C(=O)O)C1CC1; dPhg = N[C@@H](C(=O)O)c1ccccc1; Chg = N[C@H](C(=O)O)C1CCCCC1; Phg = N[C@H](C(=O)O)c1ccccc1; Tle = CC(C)(C)[C@H](N)C(=O)O; Heptanoyl = CCCCCCC(=O)*; Nva = CCC[C@H](N)C(=O)O; Aib = CC(C)(N)C(=O)O; Mpa = O=C(O)CCS
EXPERIMENTAL_READOUT: Avg. IC50 (nM)
Answers are plain numbers, in nM.

Study these solved cases before continuing.
| BINDER | Avg. IC50 (nM) |
| --- | --- |
| Ac-CESICRVLR-NH2 (linker 1-5 via mXylyl) [R2046] | 59.3 |
| MCESICR[Tle]-NH2 (linker 2-6 via mXylyl) [R2010] | 9.9 |
| Ac-CAS[Phg]CR[Gly(cPr)]-NH2 (linker 1-5 via mXylyl; not fully specified (residue 2); printed as [mXylyl(1,5)]Ac-C-a-S-Phg-CR-Cppg-NH2) [R2070] | 118 |
| Ac-[Nva]CESIC[η‑ω‑MeR]V-NH2 (linker 2-6 via mXylyl) [R2054] | 5000 |
| Ac-CESICRVLRY-NH2 (linker 1-5 via mXylyl) [R2055] | 2.2 |

// batch mode: one Avg. IC50 value per listed entry
1. Heptanoyl-CAS[dPhg]CR[Tle]-NH2 (linker 1-5 via mXylyl; not fully specified (residue 2); printed as [mXylyl(1,5)]Heptanoyl-C-a-S-(D)Phg-C-R-Tbg-NH2) [R2066]
2. {des‑NH2}-C[Aib]A[Phg]CR[Tle]-NH2 (linker 1-5 via mXylyl) [R2078]
3. MCESICRVN-NH2 (linker 2-6 via mXylyl) [R2014]
4. [Nva]CES[Phg]CR[Tle]-NH2 (linker 2-6 via mXylyl) [R2013]
5. Ac-MCES[Chg]CRV-NH2 (linker 2-6 via mXylyl) [R2050]
6. [Mpa][code a]S[Phg]CR[Tle]-NH2 (linker 1-5 via mXylyl) [R2064]

Result string:
[4370, 2.8, 37.5, 6.8, 11, 14.9]
